- Assay info: Half life in dog at 2.5 mg/kg
- Format: ADME, organism-based, Canis lupus familiaris
- Parameters: dose 2.5 mg/kg
- Assay conditions: in vivo
Examples of compounds with documented half-life follow.
Report only the number, with the unit min understood.

I am curious: what half-life value has been reported for N[C@H](COc1cnc(Cl)c(/C=C/c2ccncc2)c1)Cc1c[nH]c2ccccc12 ?
324

I am curious: what half-life value has been reported for N[C@H](COc1cncc(/C=C/c2ccncc2)c1)Cc1c[nH]c2ccccc12 ?
192

====

Examples of compounds with documented bioavailability follow.
- Assay info: Oral bioavailability in rat at 5 mg/kg
- Assay type: ADME, organism-based
- Assay conditions: in vivo
Report only the number, with the unit % understood.

I am curious: what bioavailability value has been reported for N[C@H](COc1cncc(/C=C/c2ccncc2)c1)Cc1c[nH]c2ccccc12 ?
21

I am curious: what bioavailability value has been reported for N[C@H](COc1cnc(Cl)c(/C=C/c2ccncc2)c1)Cc1c[nH]c2ccccc12 ?
17

I am curious: what bioavailability value has been reported for N[C@H](COc1cncc(/C=C/c2ccncc2)c1)Cc1csc2ccccc12 ?
43

====

Examples of compounds with documented Cmax follow.
- Assay info: Cmax in mouse at 30 mg/kg
- Type: ADME, organism-based
- Parameters: dose 30 mg/kg
- Assay conditions: in vivo
Write the numeric value and append its unit.

N[C@H](COc1cncc(/C=C/c2ccncc2)c1)Cc1c[nH]c2ccccc12 : 2780 ng/mL

I am curious: what Cmax value has been reported for N[C@H](COc1cnc(Cl)c(/C=C/c2ccncc2)c1)Cc1c[nH]c2ccccc12 ?
940 ng/mL

====

- Assay info: Oral bioavailability in mouse at 30 mg/kg
- Assay type: ADME, organism-based
- Assay conditions: in vivo
Quantity measured: bioavailability (%)
Report only the number, with the unit % understood.

N[C@H](COc1cncc(/C=C/c2ccncc2)c1)Cc1c[nH]c2ccccc12 : 39

Moving on to another molecule below.
I am curious: what bioavailability value has been reported for N[C@H](COc1cnc(Cl)c(/C=C/c2ccncc2)c1)Cc1c[nH]c2ccccc12 ?
11

====

- Assay info: Cmax in mouse at 10 mg/kg
- Assay type: ADME, organism-based
- Set-up: dose 10 mg/kg
- Assay conditions: in vivo
Quantity measured: Cmax (ng/mL)
Report only the number, with the unit ng/mL understood.

I am curious: what Cmax value has been reported for N[C@H](CCc1cnc(Cl)c(/C=C/c2ccncc2)c1)Cc1c[nH]c2ccccc12 ?
90

====

Examples of compounds with documented Cmax follow.
- Assay info: Cmax in dog at 2.5 mg/kg
- Assay type: ADME, organism-based, Canis lupus familiaris
- Set-up: dose 2.5 mg/kg
- Assay conditions: in vivo
Report only the number, with the unit ng/mL understood.

N[C@H](COc1cncc(/C=C/c2ccncc2)c1)Cc1c[nH]c2ccccc12 : 100

Moving on to another compound below.
I am curious: what Cmax value has been reported for N[C@H](COc1cnc(Cl)c(/C=C/c2ccncc2)c1)Cc1c[nH]c2ccccc12 ?
120

====

- Assay info: Half life in rat at 5 mg/kg
- Format: ADME, organism-based
- Set-up: dose 5 mg/kg
- Assay conditions: in vivo
Examples of compounds with documented half-life follow.
Write the numeric value and append its unit.

// below: answered compounds
N[C@H](COc1cnc(Cl)c(/C=C/c2ccncc2)c1)Cc1c[nH]c2ccccc12 : 3.1 h
N[C@H](COc1cncc(/C=C/c2ccncc2)c1)Cc1c[nH]c2ccccc12 : 3.1 h

I am curious: what half-life value has been reported for N[C@H](COc1cncc(/C=C/c2ccncc2)c1)Cc1csc2ccccc12 ?
2.5 h

Hello, the source for this data is ChEMBL document CHEMBL1146058, in case you need it.
